- targetUnderTest: human CD40 on cells (HEK293 stable transfectants, HEK-Blue CD40 cells, human B cells, monocytic cells, … (human, UniProt P25942 21-277))
- Sequence (P25942 21-277 limits assumed): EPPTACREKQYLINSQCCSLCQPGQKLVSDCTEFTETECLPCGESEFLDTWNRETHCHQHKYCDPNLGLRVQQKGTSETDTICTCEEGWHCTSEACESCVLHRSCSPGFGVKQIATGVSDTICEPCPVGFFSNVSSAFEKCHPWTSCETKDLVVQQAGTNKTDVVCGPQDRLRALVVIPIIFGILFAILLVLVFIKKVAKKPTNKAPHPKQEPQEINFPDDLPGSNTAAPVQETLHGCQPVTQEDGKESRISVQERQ
- measurementDescription: cell-based or functional assay
// reported NF-κB activation EC50, HEK293 CD40 NFκB reporter cells for each item listed
measuredEndpoint: NF-κB activation EC50, HEK293 CD40 NFκB reporter cells (mg/L)

1) huAb9-6 (antibody, human IgG1, V domains shown, human IgG1, kappa) VH: EVQLQESGPGLVKPSETLSLTCTVSGYSISSNYYWNWIRQPPGKGLEWMGYIRYDGSNNYNPSLKSRVTISRDTSKNQFSLKLSSVTAADTAVYYCARLDYWGQGTTVTVSS VL: DAVMTQTPLSLSVTPGQPASISCRSSQSLENTNGNTFLNWYLQKPGQSPQLLIYRVSNRFSGVPDRFSGSGSGTDFTLKISRVEAEDVGVYYCLQVTHVPFTFGQGTKLEIK | 5.95
2) huAb6-1 (antibody, human IgG1, V domains shown, human IgG1 heavy chain constant region, kappa light chain constant region) VH: EVQLVQSGAEVKKPGSSVKVSCKASGYTFTSYWMHWVRQAPGQGLEWIGNIDPSNGETHYNQKFKDRATLTVDKSTSTAYMELSSLRSEDTAVYYCARERIYYSGSTYDGYFDVWGQGTTVTVSS VL: DIQLTQSPSFLSASVGDRVTITCSASSSLSYMHWYQQKPGKSPKRWIYDTSKLASGVPSRFSGSGSGTEYTLTISSLQPEDFATYYCQQWSSNPWTFGGGTKVEIK | 1.09
